target: human FGF-R1 (Homo sapiens, UniProt P11362, C488A/C584S/L457V); experiment: FGF-R spectrophotometric assay; assay type: biochemical; settings: Table 1; compound concentration 1 µM; read-out: FGF-P* (% inhibition)
Sequence (P11362 456-766 L457V/C488A/C584S): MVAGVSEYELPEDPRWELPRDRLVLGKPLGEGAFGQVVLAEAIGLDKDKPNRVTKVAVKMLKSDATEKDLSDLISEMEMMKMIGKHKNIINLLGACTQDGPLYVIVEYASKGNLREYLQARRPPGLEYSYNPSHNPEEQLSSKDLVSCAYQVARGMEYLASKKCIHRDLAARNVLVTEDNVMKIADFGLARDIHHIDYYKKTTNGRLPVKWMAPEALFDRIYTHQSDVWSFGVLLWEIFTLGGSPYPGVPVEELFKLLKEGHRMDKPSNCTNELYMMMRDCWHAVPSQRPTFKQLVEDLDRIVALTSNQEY
Assign inhibition at 1 µM to each entry below.
The reply must contain the numeric value and, after it, the unit.

Please review the following examples before continuing.
>>> df
                                   compound  observed_measurement
0  Cc1cnc(C(=O)Nc2cccc(C(=O)c3ccc4c(/C=C/c5ccccc5)n[nH]c4c3)c2)s1                   39%
1  CCCNC(=O)c1ccccc1Sc1ccc2c(/C=C/c3ccccn3)n[nH]c2c1 [Reference Example 35(a)]                   59%
2  O=C(N/N=C/c1ccccn1)c1ccccc1Sc1ccc2c(/C=C/c3ccccn3)n[nH]c2c1 [Reference Example 36(b)]                   43%
3  Cc1cc(C(=O)Nc2cc(C(=O)c3ccc4c(/C=C/c5ccccn5)n[nH]c4c3)ccc2C)n(C(C)C)n1 [Reference Example 41(kk)]                   97%
4  CCCn1nc(C)cc1C(=O)Nc1cccc(C(=O)c2ccc3c(/C=C/c4ccccn4)n[nH]c3c2)c1 [Reference Example 41(r)]                   92%

Could you report inhibition at 1 µM for every entry in the following list?
1. Cc1cc(C(=O)Nc2cc(Nc3ccc4c(/C=C/c5ccccn5)n[nH]c4c3)ccc2C)n(C)n1
2. O=C(Nc1cccc(C(=O)c2ccc3c(/C=C/c4ccccc4)n[nH]c3c2)c1)OCc1ccccc1

Return:
1. 80%
2. 68%

###

test: in vitro; assay type: in vitro ADME, human; conditions: human liver microsomes, 5 µM test compound, 37 °C, 2 h
Assign % remain (HLM, 2 h) to each entry below.
One number for each entry, in %.

Please review the following examples before continuing.
>>> print(df.to_string())
                                   molecule    reported_property  observed_measurement
0  O=C(NCc1ccco1)c1ccccc1Sc1ccc2c(/C=C/c3ccccn3)n[nH]c2c1 [Reference Example 35(bb)]  % remain (HLM, 2 h)                     8
1  COc1cccc(CNC(=O)c2ccccc2Sc2ccc3c(/C=C/c4ccccn4)n[nH]c3c2)c1 [Reference Example 35(aa)]  % remain (HLM, 2 h)                    15

Could you report % remain (HLM, 2 h) for every entry in the following list?
1. O=C(Cc1cc(F)cc(F)c1)Nc1cccc(C(=O)c2ccc3c(/C=C/c4ccccn4)n[nH]c3c2)c1 [Reference Example 41(f)]
2. O=C(c1cccc(NC(=O)c2cccc(Cl)n2)c1)c1ccc2c(/C=C/c3ccccc3)n[nH]c2c1

Return:
59
61

###

conditions: IP, 25 mg/kg, vehicle PEG400:H2O pH 2.3 60:40
reported property: T1/2 (h)
One number for each entry, in h.

Please review the following examples before continuing.
In [3]: df
Out[3]:
                                   compound  observed_measurement
0  Cc1ccc2cc(NC(=O)c3ccccc3Sc3ccc4c(/C=C/c5ccccn5)n[nH]c4c3)ccc2n1 [Reference Example 33(b)]                   3.0
1  O=C(c1cccc(NC(=O)c2ccccn2)c1)c1ccc2c(/C=C/c3ccccc3)n[nH]c2c1 [19(k)]                   2.2
2  O=C(Nc1cccc(C(=O)c2ccc3c(/C=C/c4ccccc4)n[nH]c3c2)c1)c1ccncc1 [19(j)]                   1.6

Shift focus to the following entry.
Enquiry: Indicate the recorded T1/2 value for this compound: CC(=O)c1ccc(C(=O)Nc2cccc(C(=O)c3ccc4c(/C=C/c5ccccn5)n[nH]c4c3)c2)s1 [41 (e)]
Return: 1.6

###

target: LCK tyrosine kinase (Homo sapiens, UniProt P06239, C224D/P223M); test: LCK spectrophotometric assay; type: biochemical; details: Table 1; compound concentration 1 µM; read-out: Lck-P* (% inhibition)
Sequence (P06239 223-509 P223M/C224D): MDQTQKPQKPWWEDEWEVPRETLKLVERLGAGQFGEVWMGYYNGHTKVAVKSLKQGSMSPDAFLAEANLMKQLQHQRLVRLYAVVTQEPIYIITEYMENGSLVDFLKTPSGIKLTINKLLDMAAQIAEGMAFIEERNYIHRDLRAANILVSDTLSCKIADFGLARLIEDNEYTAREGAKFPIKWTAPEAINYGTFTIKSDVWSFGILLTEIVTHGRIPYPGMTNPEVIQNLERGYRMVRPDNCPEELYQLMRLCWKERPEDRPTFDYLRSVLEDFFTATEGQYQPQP
Assign inhibition at 1 µM to each entry below.
One number for each entry, in %.

Please review the following examples before continuing.
In [3]: df
Out[3]:
                                   compound                          target_or_system  observed_measurement
0  C=C(c1cccc(NC(C)=O)c1)c1ccc2c(/C=C/c3ccccc3)n[nH]c2c1  LCK tyrosine kinase (Homo sapiens, UniProt P06239, C224D/P223M)                    12
1  CN(O)C(=O)c1ccccc1Sc1ccc2c(/C=C/c3ccccn3)n[nH]c2c1 [Reference Example 35(o)]  LCK tyrosine kinase (Homo sapiens, UniProt P06239, C224D/P223M)                    17
2  CC(=O)NC(C(=O)Nc1cccc(C(=O)c2ccc3c(/C=C/c4ccccc4)n[nH]c3c2)c1)c1ccccc1 (stereo not shown)  LCK tyrosine kinase (Homo sapiens, UniProt P06239, C224D/P223M)                    36
3  O=C(Nc1cccc(Oc2ccc3c(/C=C/c4ccccn4)n[nH]c3c2)c1)c1ccccc1 [Reference Example 31(a)]  LCK tyrosine kinase (Homo sapiens, UniProt P06239, C224D/P223M)                    77
4  C/C=C/C(=O)Nc1cccc(C(=O)c2ccc3c(/C=C/c4ccccn4)n[nH]c3c2)c1 [Reference Example 41(c)]  LCK tyrosine kinase (Homo sapiens, UniProt P06239, C224D/P223M)                    36

Could you report inhibition at 1 µM for every entry in the following list?
1. Cc1cc(C(=O)Nc2cc(Nc3ccc4c(/C=C/c5ccccn5)n[nH]c4c3)ccc2C)n(C)n1
2. Cc1ccc2cc(NC(=O)c3ccccc3Sc3ccc4c(/C=C/c5ccccc5)n[nH]c4c3)ccc2n1 [Reference Example 38(a)]

Return:
[9, 77]

###

Assign inhibition at 1 µM to each entry below.
molecular target: LCK tyrosine kinase (Homo sapiens, UniProt P06239, C224D/P223M); experiment: LCK spectrophotometric assay; assay type: biochemical; settings: Table 1; compound concentration 1 µM; read-out: Lck-P* (% inhibition)
Give bare numbers, in %.

Please review the following examples before continuing.
In [3]: df
Out[3]:
                                   compound                          target_or_system  scale_unit  observed_measurement
0  Cc1ccccc1C(=O)NNC(=O)c1ccccc1Sc1ccc2c(/C=C/c3ccccn3)n[nH]c2c1 [Reference Example 35(q)]  LCK tyrosine kinase (Homo sapiens, UniProt P06239, C224D/P223M)           %                    42
1  C[C@@H]1C[C@H]1C(=O)Nc1cccc(C(=O)c2ccc3c(/C=C/c4ccccn4)n[nH]c3c2)c1 (racemic) [Reference Example 41(h)]  LCK tyrosine kinase (Homo sapiens, UniProt P06239, C224D/P223M)           %                    30
2  O=C(Nc1cccc(Cl)c1)c1ccccc1Sc1ccc2c(/C=C/c3ccccn3)n[nH]c2c1 [Reference Example 33(d)]  LCK tyrosine kinase (Homo sapiens, UniProt P06239, C224D/P223M)           %                    55

Could you report inhibition at 1 µM for every entry in the following list?
1. O=C(Nc1ccccc1)c1ccccc1Sc1ccc2c(/C=C/c3ccccn3)n[nH]c2c1 [Reference Example 33(c)]
2. C(=C\c1n[nH]c2cc(Sc3ccccc3)ccc12)/c1ccccc1
3. O=C(Nc1cccc(Oc2ccc3c(/C=C/c4ccco4)n[nH]c3c2)c1)c1ccccc1 [Reference Example 30(c)]
4. O=C(Nc1cccc(C(=O)c2ccc3c(/C=C/c4ccccn4)n[nH]c3c2)c1)c1ccnc(Cl)c1 [Reference Example 41(w)]

Return:
[26, 34, 44, 49]

###

conditions: mouse, in vivo, ip, 25 mg/kg, 7 h, pH 2.3
reported property: Cmin (7 hr conc.) (ng/mL)
Numbers only, in ng/mL.

                                   molecule  reported_property  observed_measurement
0  C#CCNC(=O)c1ccccc1Sc1ccc2c(/C=C/c3ccccn3)n[nH]c2c1  Cmin (7 hr conc.)                     6
1  O=C(NCC(F)(F)F)c1ccccc1Sc1ccc2c(/C=C/c3ccccn3)n[nH]c2c1  Cmin (7 hr conc.)                     6
2  C=C(C)CNC(=O)c1ccccc1Sc1ccc2c(/C=C/c3ccccn3)n[nH]c2c1 [35 (ee)]  Cmin (7 hr conc.)                     2

Could you report Cmin (7 hr conc.) for every entry in the following list?
1. Cc1ccc(CNC(=O)c2ccccc2Sc2ccc3c(/C=C/c4ccccn4)n[nH]c3c2)o1
2. O=C(Nc1nccs1)c1ccccc1Sc1ccc2c(/C=C/c3ccccn3)n[nH]c2c1

Return:
1
2
